// data source = PubChem BioAssay AID624274

molecular target: Protein disulfide-isomerase (Homo sapiens) (UniProt P07237); experiment: inhibition of PDI-mediated insulin reduction – biochemical, turbidity, absorbance, cherry-picked samples, set 2, dose response (AID 624274); conditions: absorbance 650 nm
Sequence (P07237 whole entry, looked up): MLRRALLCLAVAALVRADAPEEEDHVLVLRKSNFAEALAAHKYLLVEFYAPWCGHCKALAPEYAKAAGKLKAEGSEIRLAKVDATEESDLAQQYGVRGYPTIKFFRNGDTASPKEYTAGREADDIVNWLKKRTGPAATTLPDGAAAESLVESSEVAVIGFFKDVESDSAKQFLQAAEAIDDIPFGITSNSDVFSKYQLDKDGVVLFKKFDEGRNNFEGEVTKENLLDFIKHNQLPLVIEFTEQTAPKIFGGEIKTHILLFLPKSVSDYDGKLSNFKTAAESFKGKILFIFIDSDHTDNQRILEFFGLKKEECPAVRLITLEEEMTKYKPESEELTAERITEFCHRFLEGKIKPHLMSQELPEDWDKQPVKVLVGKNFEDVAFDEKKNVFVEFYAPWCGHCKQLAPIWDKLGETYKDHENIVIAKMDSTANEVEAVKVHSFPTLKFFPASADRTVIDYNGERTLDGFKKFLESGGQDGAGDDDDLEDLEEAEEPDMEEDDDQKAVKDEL
# AC50 per entry

Reference set (4 entries):
[
  {
    "molecule": "Cc1c(O)ccc2c(CC(=O)N[C@@H](Cc3c[nH]c4ccccc34)C(=O)O)cc(=O)oc12",
    "measuredOn": "Protein disulfide-isomerase (Homo sapiens) (UniProt P07237)",
    "AC50": "6.76 µM"
  },
  {
    "molecule": "C[C@@H]1CN([C@H](C)CO)C(=O)c2cccc(NS(C)(=O)=O)c2O[C@H]1CN(C)Cc1ccc(Oc2ccccc2)cc1",
    "measuredOn": "Protein disulfide-isomerase (Homo sapiens) (UniProt P07237)",
    "AC50": "18.8 µM"
  },
  {
    "molecule": "Cc1c(-n2cc(C(=O)c3ccccc3O)cc(C#N)c2=O)c(=O)n(-c2ccccc2)n1C",
    "measuredOn": "Protein disulfide-isomerase (Homo sapiens) (UniProt P07237)",
    "AC50": "5.89 µM"
  },
  {
    "molecule": "O=C1NC[C@H](Cc2ccc(O)cc2)N(CC2CCCCC2)C1=O",
    "measuredOn": "Protein disulfide-isomerase (Homo sapiens) (UniProt P07237)",
    "AC50": "19.5 µM"
  }
]

Next:
Field request: AC50 | item: "Cn1cnnc1Sc1ccc(/C=C/C(=O)c2ccc(O)cc2)cc1[N+](=O)[O-]"
0.422 µM
